Overview of recorded pIC50 for various molecules
TARGET OR TEST SYSTEM: human MRGPRX2 (Homo sapiens, UniProt Q96LB1)
PROTOCOL TEXT: Ca2+ mobilization assay (FLIPR TETRA): inhibition of Cortistatin-14 mediated MRGPRX2 activation
pIC50: −log10 of the molar value.

A selection of reference data follows.
C[C@@H](C(=O)Nc1ccc(Oc2ccc(Cl)cn2)cn1)N1CCC(F)(F)[C@@H](c2ccc(=O)[nH]c2)C1 [Example 88]    7.00 to 8.00
CC(C(=O)Nc1ccc(CCC2CC2)cn1)N1CCC(F)(F)[C@@H](c2ccc(=O)[nH]c2)C1 (stereo partly shown) [Example 21]    7.00 to 8.00
CC(C(=O)Nc1ncc(Oc2ccc(F)cn2)cc1F)N1CCC(F)(F)[C@@H](c2ccc(=O)[nH]c2)C1 (stereo partly shown) [Example 91]    5.50 to 7.00

Value of measured pIC50 for the entry C[C@@H](C(=O)Nc1ccc(C2CC2)cn1)N1CCC(F)(F)[C@@H](c2ccc(=O)[nH]c2)C1 [Example 15] : 7.00 to 8.00

Value of measured pIC50 for the entry CC(C(=O)Nc1ccc(OC2CCC2)cn1)N1CCC(F)(F)[C@@H](c2ccc(=O)[nH]c2)C1 (stereo partly shown) [Example 78] : 5.50 to 7.00

====

TARGET OR TEST SYSTEM: human MRGPRX2 (Homo sapiens, UniProt Q96LB1)
Sequence (Q96LB1 1-330): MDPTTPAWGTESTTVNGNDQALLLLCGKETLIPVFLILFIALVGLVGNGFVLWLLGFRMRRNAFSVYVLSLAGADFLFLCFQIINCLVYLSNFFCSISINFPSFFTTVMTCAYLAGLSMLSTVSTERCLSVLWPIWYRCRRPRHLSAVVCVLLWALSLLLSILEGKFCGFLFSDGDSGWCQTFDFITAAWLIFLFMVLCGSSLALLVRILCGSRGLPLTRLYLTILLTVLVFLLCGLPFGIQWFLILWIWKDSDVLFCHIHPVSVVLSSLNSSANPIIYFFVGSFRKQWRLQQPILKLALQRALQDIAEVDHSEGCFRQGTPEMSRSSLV
PROTOCOL TEXT: Ca2+ mobilization assay (FLIPR TETRA): inhibition of Cortistatin-14 mediated MRGPRX2 activation
pIC50: −log10 of the molar value.
MEASURED PROPERTY: pIC50

C[C@@H](C(=O)Nc1ccc(F)cn1)N1CCC(F)(F)[C@@H](c2ccc(=O)[nH]n2)C1    5.50 to 7.00
C[C@@H](C(=O)Nc1ccc(Oc2ncc(F)cc2F)cn1)N1CCC(F)(F)[C@@H](c2c[nH]c(=O)c(CN3CCOCC3)c2)C1    7.00 to 8.00

Tested on human MRGPRX2 (Homo sapiens, UniProt Q96LB1): CC(C(=O)Nc1ccc(C2CCCCC2)cn1)N1CCC(F)(F)[C@@H](c2ccc(=O)[nH]c2)C1 (stereo partly shown) . Observed pIC50: 5.50 to 7.00

Tested on human MRGPRX2 (Homo sapiens, UniProt Q96LB1): C[C@@H](C(=O)Nc1ccc(OCC2CCC2)nn1)N1CCC(F)(F)[C@@H](c2ccc(=O)[nH]c2)C1 . Observed pIC50: 5.50 to 7.00

Tested on human MRGPRX2 (Homo sapiens, UniProt Q96LB1): C[C@@H](C(=O)Nc1ccc(Oc2ccc(F)c(F)c2F)cn1)N1CCC(F)(F)[C@@H](c2cc[n+]([O-])cc2)C1 . Observed pIC50: ≥ 8.00

Tested on human MRGPRX2 (Homo sapiens, UniProt Q96LB1): CC(C(=O)Nc1ccc(Cc2ncco2)cn1)N1CCC(F)(F)[C@@H](c2ccc(=O)[nH]c2)C1 (stereo partly shown) . Observed pIC50: 4.50 to 5.50

Tested on human MRGPRX2 (Homo sapiens, UniProt Q96LB1): C[C@@H](C(=O)Nc1cnc(Oc2ccc(F)c(F)c2F)cn1)N1CCC(F)(F)[C@@H](c2cc[n+]([O-])cc2)C1 . Observed pIC50: ≥ 8.00

====

TARGET OR TEST SYSTEM: human MRGPRX2 (Homo sapiens)
Sequence (Q96LB1 1-330): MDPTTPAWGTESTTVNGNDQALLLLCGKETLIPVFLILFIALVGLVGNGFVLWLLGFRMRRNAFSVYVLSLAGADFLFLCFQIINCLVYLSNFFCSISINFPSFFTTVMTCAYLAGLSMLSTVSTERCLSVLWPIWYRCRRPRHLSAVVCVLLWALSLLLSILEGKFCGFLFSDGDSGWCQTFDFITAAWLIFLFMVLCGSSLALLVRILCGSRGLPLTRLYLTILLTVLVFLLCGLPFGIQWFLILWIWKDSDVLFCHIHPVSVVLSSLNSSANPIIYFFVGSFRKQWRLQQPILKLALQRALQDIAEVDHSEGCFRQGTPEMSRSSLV
PROTOCOL TEXT: Ca2+ mobilization assay (FLIPR TETRA): inhibition of Cortistatin-14 mediated MRGPRX2 activation
pIC50: −log10 of the molar value.
Overview of recorded pIC50 for various molecules

A selection of reference data follows.
C[C@@H](C(=O)Nc1ccc(Oc2ccc(F)cn2)cn1)[C@H]1CCC[C@@H](c2cc[n+]([O-])cc2)C1    7.00 to 8.00
C[C@@H](C(=O)Nc1ccc(F)cn1)[C@H]1CCC(F)(F)[C@@H](c2ccc(=O)[nH]c2)C1    7.00 to 8.00

Value of measured pIC50 for the entry CNCc1cc(C2CN(C(C)C(=O)Nc3ccc(Oc4ccc(F)cc4)cn3)CCC2(F)F)c[nH]c1=O (stereo not shown) : ≥ 8.00

Value of measured pIC50 for the entry C[C@@H](C(=O)Nc1ccc(F)cn1)N1CCC(F)(F)C(c2cc(N)c(=O)n(CC(F)(F)F)c2)C1 (stereo partly shown) : 4.50 to 5.50

====

TARGET OR TEST SYSTEM: human MRGPRX2 (Homo sapiens, UniProt Q96LB1)
Sequence (Q96LB1 1-330): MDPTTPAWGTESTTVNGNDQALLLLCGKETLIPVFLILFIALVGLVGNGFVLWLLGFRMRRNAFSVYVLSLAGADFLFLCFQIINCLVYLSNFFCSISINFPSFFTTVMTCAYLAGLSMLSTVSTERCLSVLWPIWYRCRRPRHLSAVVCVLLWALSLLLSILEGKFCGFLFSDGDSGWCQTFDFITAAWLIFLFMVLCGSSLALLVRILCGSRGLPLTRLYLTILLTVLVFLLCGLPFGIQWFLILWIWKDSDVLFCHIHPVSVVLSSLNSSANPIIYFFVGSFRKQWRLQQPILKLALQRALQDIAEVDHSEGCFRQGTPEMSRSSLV
PROTOCOL TEXT: Ca2+ mobilization assay (FLIPR TETRA): inhibition of Cortistatin-14 mediated MRGPRX2 activation
Overview of recorded IC50 for various molecules

A selection of reference data follows.
C[C@@H](C(=O)Nc1ccc(OCC2CC2)nn1)N1CCC(F)(F)[C@@H](c2ccc(=O)n(CC(F)(F)F)c2)C1    ≤ 10 nM
C[C@@H](C(=O)Nc1ccc(Oc2ccc(F)cc2F)cn1)[C@H]1CCC(F)(F)[C@@H](c2ccc(=O)[nH]c2)C1    ≤ 10 nM
CC(C(=O)Nc1ccc(Oc2cncc(F)c2)cn1)N1CCC(F)(F)[C@@H](c2ccc(=O)[nH]c2)C1 (stereo partly shown)    10 to 100 nM

Here's the next entry for you.
Tested on human MRGPRX2 (Homo sapiens, UniProt Q96LB1): C[C@@H](C(=O)Nc1ccc(Oc2ccc(F)cc2F)cn1)N1CCC[C@@H](c2cc[n+]([O-])cc2)C1 . Observed IC50: ≤ 10 nM

====

TARGET OR TEST SYSTEM: human MRGPRX2 (Homo sapiens, UniProt Q96LB1)
PROTOCOL TEXT: Ca2+ mobilization assay (FLIPR TETRA): inhibition of Cortistatin-14 mediated MRGPRX2 activation
MEASURED PROPERTY: IC50

A selection of reference data follows.
C[C@@H](C(=O)Nc1ccc(OCC2CC2)nn1)N1CCC(F)(F)[C@@H](c2c[nH]c(=O)cn2)C1    10 to 100 nM
C[C@@H](C(=O)Nc1ccc(C2CCCC2)cn1)N1CCC(F)(F)[C@@H](c2ccc(=O)[nH]c2)C1    10 to 100 nM
CC(C)(C(=O)Nc1ccc(OCC2CC2)cn1)N1CCC(F)(F)[C@@H](c2ccc(=O)[nH]c2)C1 (single isomer, unassigned)    100 to 3160 nM
C[C@@H](C(=O)Nc1ccc(Oc2ccc(F)cc2F)cn1)N1CCC(F)(F)C(c2cc(C(O)C(F)(F)F)c[n+]([O-])c2)C1 (mixture of isomers)    10 to 100 nM
Cc1cccc(-c2ccc(NC(=O)[C@H](C)N3CCC(F)(F)[C@@H](c4ccc(=O)[nH]c4)C3)nc2)c1    10 to 100 nM
C[C@@H](C(=O)Nc1ccc(Oc2ccc(F)cn2)cn1)N1CCC(F)(F)[C@@H](c2ccc(=O)[nH]c2)C1    ≤ 10 nM

Value of measured IC50 for the entry C[C@@H](C(=O)Nc1ccc(Oc2ccc(F)cc2F)cn1)N1CCC(F)(F)[C@@H](c2c[nH]c(=O)c(CN)c2)C1 : ≤ 10 nM
